Target: T1, Claudin 18.2 (CLDN18.2), expressed on CHOS-CLDN 18.2 / HEK293-CLDN 18.2 / HCC827-CLDN 18.2 cells (human, UniProt P56856-2 1-261)
T1 construct: whole, on cells; The species is not repeated for the CHOS-CLDN 18.2 cells; also called claudin-18A2
Experiment: FACS, CHOS-CLDN18.2 cells, 20 µg/ml
measured-endpoint: FACS reading
Reply: number alone, nothing else.

QP14451442 (antibody, human IgG1, kappa, V domains shown, Humanized from QP192193) VH: QVQLVQSGAEVKKPGASVKVSCKASGYAFSSYWMNWVRQAPGQGLEWIGQIYPGNGDTTYNGKFKGRVTMTADKSTSTVYMELSSLRSEDTAVYFCARFVKGNAMDYWGQGTLVTVSS VL: DIVMTQSPDSLAVSLGERATISCKSSQSLLNSGNQKNYLTWYQQKPGQPPKMLIYWASTRESGVPDRFSGSGSGIDFTLTISSVQAEDVAVYYCQNAYSYPFTFGQGTKLEIKR    177000

Now look at this one.
Find the recorded FACS reading belonging to QP14451440 (antibody, human IgG1, kappa, V domains shown, Humanized from QP192193; also called QP14401445) VH: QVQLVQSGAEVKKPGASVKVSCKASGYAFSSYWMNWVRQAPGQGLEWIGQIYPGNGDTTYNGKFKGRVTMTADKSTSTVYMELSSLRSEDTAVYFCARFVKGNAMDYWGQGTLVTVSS VL: DIVMTQSPDSLAVSLGERATISCKSSQSLLNSGNQKNYLTWYQQKPGQPPKLLIYWASTRESGVPDRFSGSGSGTDFTLTISSLQAEDVAVYYCQNAYSYPFTFGQGTKLEIKR and report it.
169000
